Organism: Rattus norvegicus
Test: DrugMatrix - Regimen: Daily Repeat
Type: toxicity, organism-based, Sprague-Dawley
Design: regimen Daily Repeat, gender Male, age 6-8 weeks
Settings: in vivo, po, 0 mg/kg, 120 h, tissue Plasma, route oral GAVAGE, dose level Control, time 5 day, vehicle .5 % CMC
Label criterion met when LIPASE >= 10 u/L; otherwise criterion not met.

Please review the entries below; each comes with its answer.
molecule	category
CN1C(=O)CN=C(c2ccccc2)c2cc(Cl)ccc21 [DIAZEPAM]	criterion met
C[C@@H](O)[C@H]1C(=O)N2C(C(=O)O)=C(S[C@@H]3CN[C@H](C(=O)N(C)C)C3)[C@H](C)[C@H]12 [MEROPENEM]	criterion not met
Clc1cc2c(cc1Cl)Oc1cc(Cl)c(Cl)cc1O2 [2,3,7,8-TETRACHLORODIBENZO-P-DIOXIN]	criterion met

Q. Evaluate COc1ccccc1OCC(O)COC(N)=O (stereo unspecified) [METHOCARBAMOL] : LIPASE at minimum 10 u/L?
A. criterion not met

Q. Please answer likewise for `CCOC(=O)[C@H](CCc1ccccc1)N[C@@H](C)C(=O)N1Cc2ccccc2C[C@H]1C(=O)O`
A. criterion not met

Q. Try O=c1cc(-c2ccccc2)oc2ccc3ccccc3c12 [BETA-NAPHTHOFLAVONE] next.
A. criterion met

Q. Again, but for Nc1cccc(Cl)c1 [3-CHLOROANILINE]
A. criterion met

Q. And what about the molecule CC(C)(Sc1cc(C(C)(C)C)c(O)c(C(C)(C)C)c1)Sc1cc(C(C)(C)C)c(O)c(C(C)(C)C)c1 [PROBUCOL] ?
A. criterion not met

Q. Please answer likewise for CC(=O)O[C@]1(C(C)=O)CC[C@H]2[C@@H]3C=C(Cl)C4=CC(=O)[C@@H]5C[C@@H]5[C@]4(C)[C@H]3CC[C@@]21C [CYPROTERONE ACETATE]
A. criterion not met

Q. Try the molecule CCCCC1C(=O)N(c2ccccc2)N(c2ccccc2)C1=O [PHENYLBUTAZONE]
A. criterion met

Ref: ChEMBL document CHEMBL3885881
